molecular target: human LAG3 expressed on cells (human) (UniProt P18627); test: cell-based or functional assay
Sequence (P18627 23-525): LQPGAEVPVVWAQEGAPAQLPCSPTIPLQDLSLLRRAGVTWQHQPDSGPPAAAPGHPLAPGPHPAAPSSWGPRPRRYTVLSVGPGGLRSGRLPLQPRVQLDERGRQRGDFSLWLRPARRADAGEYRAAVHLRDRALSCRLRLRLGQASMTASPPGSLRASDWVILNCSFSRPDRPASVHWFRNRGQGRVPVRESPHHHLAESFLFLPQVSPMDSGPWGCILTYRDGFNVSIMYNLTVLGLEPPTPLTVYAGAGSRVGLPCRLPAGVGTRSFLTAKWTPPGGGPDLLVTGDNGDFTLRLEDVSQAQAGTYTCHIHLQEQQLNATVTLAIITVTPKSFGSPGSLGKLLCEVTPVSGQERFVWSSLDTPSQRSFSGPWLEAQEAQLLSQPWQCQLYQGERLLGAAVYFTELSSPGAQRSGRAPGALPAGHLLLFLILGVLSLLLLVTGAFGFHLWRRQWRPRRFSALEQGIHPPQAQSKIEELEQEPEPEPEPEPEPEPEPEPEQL
valueType: IL-2, % of BMS, at 20 ug/mL (%)
Number only, in %; omit the unit.

query: IL-2, % of BMS, at 20 ug/mL for sdAb fusion 25-27-3 (Fc fusion, not shown: a dimerising Fc or GST) QLQLVESGGGLVQAGGSLRLSCAASGSIESFSFMGWYRQAPGKQRELVAGFTGAASLSFSTYTDAVKGRFTISRDNAKNTVYLQMNSLKPEDTAVYFCNVDPWSQSWPGRYWGQGTQVTVSSGGGGSGGGGSGGGGSQVQLVESGGGLVQPGGSLRLSCAASGFTLDYYAIGWFRQAPGKEREGVSCIRSSDGSTYYADSVKGRFTISSDNTKNTVYLQMNSLKPEDTAVYYCATDRYSDCRGPYENWGQGTQVTVSSEPKSCDKTHTCPPCPAPELLG ?
result: 168

query: IL-2, % of BMS, at 20 ug/mL for sdAb fusion 25-2015-2 (Fc fusion, not shown: a dimerising Fc or GST) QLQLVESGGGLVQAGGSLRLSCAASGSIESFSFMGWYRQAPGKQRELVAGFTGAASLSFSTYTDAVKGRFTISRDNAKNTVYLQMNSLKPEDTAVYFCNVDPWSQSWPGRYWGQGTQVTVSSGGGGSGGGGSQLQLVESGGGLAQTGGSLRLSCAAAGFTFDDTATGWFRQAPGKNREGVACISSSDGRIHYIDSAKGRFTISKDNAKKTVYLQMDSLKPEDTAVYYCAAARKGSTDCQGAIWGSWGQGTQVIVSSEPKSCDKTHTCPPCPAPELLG ?
result: 96.6
